- measurement.description: Cmax in healthy human at 1000 mg, iv administered as 1 hr infusion every 8 hrs for 10 days measured on day 10
- Format: ADME, organism-based
- Parameters: dose 1000 mg, route intravenous
- test.context: in vivo
value.kind: Cmax (µg/mL)
Please respond with the number in µg/mL and leave the unit unwritten.

### Prompt Supply recorded Cmax for `Cn1c(N)c(NC(=O)NCCN)c[n+]1CC1=C(C(=O)O)N2C(=O)[C@@H](NC(=O)/C(=N\OC(C)(C)C(=O)[O-])c3nsc(N)n3)[C@H]2SC1` here.
### Response 58

###

- measurement.description: Volume of distribution at steady state in healthy human at 1500 mg, iv administered as 1 hr infusion every 12 hrs for 10 days measured on day 10
- Format: ADME, organism-based
- test.context: in vivo
value.kind: Vd

### Prompt Report Vd for Cn1c(N)c(NC(=O)NCCN)c[n+]1CC1=C(C(=O)O)N2C(=O)[C@@H](NC(=O)/C(=N\OC(C)(C)C(=O)[O-])c3nsc(N)n3)[C@H]2SC1 [CEFTOLOZANE]
### Response 18.1 L

###

- measurement.description: Cmax in healthy human at 1000 mg, iv administered as single dose as 1 hr iv infusion
- Assay type: ADME, organism-based
- Set-up: dose 1000 mg, route intravenous
- test.context: in vivo
value.kind: Cmax (µg/mL)
Provide the reading as a plain figure in µg/mL.

### Prompt Give me measured Cmax, please, for this compound: `Cn1c(N)c(NC(=O)NCCN)c[n+]1CC1=C(C(=O)O)N2C(=O)[C@@H](NC(=O)/C(=N\OC(C)(C)C(=O)[O-])c3nsc(N)n3)[C@H]2SC1`
### Response 58.4

###

- measurement.description: AUC (0 to infinity) in healthy human at 500 mg, iv administered as single dose as 1 hr iv infusion
- Type: ADME, organism-based
- Design: dose 500 mg, time infinity, route intravenous
- test.context: plasma
value.kind: AUC(0-inf)

### Prompt For the compound Cn1c(N)c(NC(=O)NCCN)c[n+]1CC1=C(C(=O)O)N2C(=O)[C@@H](NC(=O)/C(=N\OC(C)(C)C(=O)[O-])c3nsc(N)n3)[C@H]2SC1 [CEFTOLOZANE] , report AUC(0-inf).
### Response 84100 ng·h/mL

###

- measurement.description: Tmax in healthy human at 1000 mg, iv administered as 1 hr infusion every 8 hrs for 10 days measured on day 10
- Format: ADME, organism-based
- test.context: in vivo
value.kind: Tmax (h)
Just the number in h, nothing appended.

### Prompt Give a short answer stating reported Tmax for `Cn1c(N)c(NC(=O)NCCN)c[n+]1CC1=C(C(=O)O)N2C(=O)[C@@H](NC(=O)/C(=N\OC(C)(C)C(=O)[O-])c3nsc(N)n3)[C@H]2SC1` .
### Response 1.05

###

- measurement.description: Tmax in healthy human at 2000 mg, iv administered as single dose as 1 hr iv infusion
- Type: ADME, organism-based
- test.context: in vivo
value.kind: Tmax (h)
Response body: numeric value in h, unit text excluded.

### Prompt Identify measured Tmax corresponding to `Cn1c(N)c(NC(=O)NCCN)c[n+]1CC1=C(C(=O)O)N2C(=O)[C@@H](NC(=O)/C(=N\OC(C)(C)C(=O)[O-])c3nsc(N)n3)[C@H]2SC1`
### Response 1.06
